ASSAY_SYSTEM: T1, human CX3CR1 (human, UniProt P49238 1-355)
T1 construct: overexpressed on CHO, BA/F3 or HEK293T cells; also called huCX3CR1; hCX3CR1
T1 sequence: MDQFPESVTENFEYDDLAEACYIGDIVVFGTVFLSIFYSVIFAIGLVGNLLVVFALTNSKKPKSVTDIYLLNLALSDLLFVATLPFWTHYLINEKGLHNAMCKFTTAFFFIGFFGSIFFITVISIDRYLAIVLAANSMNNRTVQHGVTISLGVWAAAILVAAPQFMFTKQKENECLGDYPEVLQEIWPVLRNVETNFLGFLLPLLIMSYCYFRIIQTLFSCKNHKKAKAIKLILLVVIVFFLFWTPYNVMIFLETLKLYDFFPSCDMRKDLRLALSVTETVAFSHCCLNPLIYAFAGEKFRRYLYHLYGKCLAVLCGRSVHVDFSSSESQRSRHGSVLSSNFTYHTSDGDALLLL
EXPERIMENT_DESCRIPTION: A647-fractalkine competition FACS, HEK293-huCX3CR1
Assign % block to each entry below.
Form entry: value (%) — number only.

Problem: Endpoint output: % block of CX3CR1BIIPMP54A7 (VHH, also called 54A07; not shown: C-terminal c-myc and His6 tags) VHH: EVQLVESGGGSVQAGESLRLSCAASGTIFSSNAMAWYRQAPGKQRDLVAGINSVDITKYADSVKGRFTISRDNAKNTVYLQMNSLKPEDTAVYYCTSDPRRGWNTRYWGQGTQVTVSS . Value?
Solution: 52

Problem: Again, but for CX3CR1BIIPMP54A4 (VHH, also called 54A04; not shown: C-terminal c-myc and His6 tags) VHH: EVQLVESGRGSVQAGESLRLSCAASGSIFSSNAMAWYRQAPGKQRDLVAGINSVGITKYADSVKGRFTISRDNAKNTVYLQMNSLKPEDTAVYYCTSDPRRGWDTRYWGQGTQVTVSS
Solution: 100

Problem: Again, but for CX3CR1BIIPMP61E2 (VHH, also called 61E02; not shown: C-terminal c-myc and His6 tags) VHH: EVQLVESGGGSVQAGESLRLSCAASGSIFSSNAMAWYRQAPGKQRDLVAGINSVGITKYADSVKGRFTISRDNAKNTVYLQMNSLKPEDMAVYYCTSDPRRGWDTRYWGQGTQVTVSS
Solution: 98

Problem: Again, but for CX3CR1BIIPMP66G01 (VHH, also called CX3CR1BII66G01; not shown: C-terminal c-myc and His6 tags) VHH: EMQLVESGGGSVQAGESLRLSCAASGSIFSSNAMAWYRQAPGKQRDLVALINSVGITKYADSVKGRFTISRDNAKNTVYLQMNSLKPEDTAVYYCTSDGRRGWDTRYWGQGTQVTVSS
Solution: 99
